Ref: patent US20110178396A1

Tested on: B16F0 melanoma tumour
Assay: Biodistribution in B16 melanoma bearing mice
Assay type: in vivo, C57BL/6J mice
Conditions: B16 melanoma bearing mice, 15 min
experimentalReadout: uptake SPLEEN (% ID/g)
Number only, in % ID/g; omit the unit.

CCCCN(C)CCCCNC(=O)c1ccc(F)nc1 [[^18F]MEL4]; 11.19
CCN(CC)CCNC(=O)c1ccnc(F)c1 [[^18F]MEL8]; 10.27
CCN(CC)CCNC(=O)c1cccnc1F [[^18F]MEL6]; 11.8

(Q) # uptake SPLEEN lookup, item CCN(CC)CCNC(=O)c1ccc(F)nc1 [[^18F]MEL2]
(A) 8.585

###

Tested on: B16F0 melanoma tumour
Experiment: Biodistribution in B16 melanoma bearing mice
Format: in vivo, C57BL/6J mice
Details: B16 melanoma bearing mice, 3 h
experimentalReadout: uptake SKIN (% ID/g)
Number only, in % ID/g; omit the unit.

Below are worked cases with known answers.
CCCCN(C)CCCCNC(=O)c1ccc(F)nc1 [[^18F]MEL4]; 1.09
CCN(CC)CCNC(=O)c1cccnc1F [[^18F]MEL6]; 0.2
CCN(CC)CCNC(=O)c1ccnc(F)c1 [[^18F]MEL8]; 0.15

(Q) # uptake SKIN lookup, item CCN(CC)CCNC(=O)c1ccc(F)nc1 [[^18F]MEL2]
(A) 0.172

###

System: B16F0 melanoma tumour
Experiment: Biodistribution in B16 melanoma bearing mice
Type: in vivo, C57BL/6J mice
Details: B16 melanoma bearing mice, 3 h
This listing pairs compounds with measured uptake LUNGS.
Number only, in % ID/g; omit the unit.

CCN(CC)CCNC(=O)c1cccnc1F [[^18F]MEL6]; 0.3
CCN(CC)CCNC(=O)c1ccnc(F)c1 [[^18F]MEL8]; 0.37
CCN(CC)CCNC(=O)c1ccc(F)nc1 [[^18F]MEL2]; 0.253

Next compound, uptake LUNGS to be filled in.
(Q) # uptake LUNGS lookup, item CCCCN(C)CCCCNC(=O)c1ccc(F)nc1 [[^18F]MEL4]
(A) 3.08

###

Test system: B16F0 melanoma tumour
Experiment: Biodistribution in B16 melanoma bearing mice
Assay type: in vivo, C57BL/6J mice
Settings: B16 melanoma bearing mice, 15 min
Protocol: Animal experiments were performed in compliance with the NHMRC Australian Code of Practice for the care and use of animals for scientific purposes. […] Eleven days (B16F0 melanoma) and 25 days (A375 human melanoma) after tumour transplantation, the [^18F]nicotinamides (0.5-1.5 MBq, 100 μl) and [^123I]nicotinamide (0.37-0.74 MBq, 100 μl) derivatives were injected intravenously via the tail vein into mice (15-18 g). […] Selected organs were weighed and their radioactivity measured with a γ-counter. […]
experimentalReadout: uptake BRAIN (% ID/g)
Number only, in % ID/g; omit the unit.

CCN(CC)CCNC(=O)c1cccnc1F [[^18F]MEL6]; 6.2
CCN(CC)CCNC(=O)c1ccc(F)nc1 [[^18F]MEL2]; 2.471
CCN(CC)CCNC(=O)c1ccnc(F)c1 [[^18F]MEL8]; 3.47

(Q) # uptake BRAIN lookup, item CCCCN(C)CCCCNC(=O)c1ccc(F)nc1 [[^18F]MEL4]
(A) 0.84

###

This listing pairs compounds with measured uptake BRAIN.
Tested on: B16F0 melanoma tumour
Experiment: Biodistribution in B16 melanoma bearing mice
Format: in vivo, C57BL/6J mice
Conditions: B16 melanoma bearing mice, 1 h
Number only, in % ID/g; omit the unit.

CCCCN(C)CCCCNC(=O)c1ccc(F)nc1 [[^18F]MEL4]; 0.75
CCN(CC)CCNC(=O)c1ccnc(F)c1 [[^18F]MEL8]; 1.37
CCN(CC)CCNC(=O)c1cccnc1F [[^18F]MEL6]; 1.6

Next compound, uptake BRAIN to be filled in.
(Q) # uptake BRAIN lookup, item CCN(CC)CCNC(=O)c1ccc(F)nc1 [[^18F]MEL2]
(A) 1.096

###

Tested on: B16F0 melanoma tumour
Assay: Biodistribution in B16 melanoma bearing mice
Type: in vivo, C57BL/6J mice
Details: B16 melanoma bearing mice, 15 min
Method: Animal experiments were performed in compliance with the NHMRC Australian Code of Practice for the care and use of animals for scientific purposes. […] Eleven days (B16F0 melanoma) and 25 days (A375 human melanoma) after tumour transplantation, the [^18F]nicotinamides (0.5-1.5 MBq, 100 μl) and [^123I]nicotinamide (0.37-0.74 MBq, 100 μl) derivatives were injected intravenously via the tail vein into mice (15-18 g). […] Selected organs were weighed and their radioactivity measured with a γ-counter. […]
experimentalReadout: uptake BONE (% ID/g)
Number only, in % ID/g; omit the unit.

Below are worked cases with known answers.
CCN(CC)CCNC(=O)c1cccnc1F [[^18F]MEL6]; 4.8
CCCCN(C)CCCCNC(=O)c1ccc(F)nc1 [[^18F]MEL4]; 3.89
CCN(CC)CCNC(=O)c1ccnc(F)c1 [[^18F]MEL8]; 4.03

(Q) # uptake BONE lookup, item CCN(CC)CCNC(=O)c1ccc(F)nc1 [[^18F]MEL2]
(A) 3.493

###

This listing pairs molecules with measured uptake BONE.
System: B16F0 melanoma tumour
Assay: Biodistribution in B16 melanoma bearing mice
Assay type: in vivo, C57BL/6J mice
Settings: B16 melanoma bearing mice, 1 h
Experimental: Animal experiments were performed in compliance with the NHMRC Australian Code of Practice for the care and use of animals for scientific purposes. […] Eleven days (B16F0 melanoma) and 25 days (A375 human melanoma) after tumour transplantation, the [^18F]nicotinamides (0.5-1.5 MBq, 100 μl) and [^123I]nicotinamide (0.37-0.74 MBq, 100 μl) derivatives were injected intravenously via the tail vein into mice (15-18 g). […] Selected organs were weighed and their radioactivity measured with a γ-counter. […]
Respond with a number, then the unit of measure.

CCN(CC)CCNC(=O)c1ccnc(F)c1 [[^18F]MEL8]; 1.52 % ID/g
CCN(CC)CCNC(=O)c1ccc(F)nc1 [[^18F]MEL2]; 1.368 % ID/g
CCN(CC)CCNC(=O)c1cccnc1F [[^18F]MEL6]; 3.4 % ID/g

Next molecule, uptake BONE to be filled in.
(Q) # uptake BONE lookup, item CCCCN(C)CCCCNC(=O)c1ccc(F)nc1 [[^18F]MEL4]
(A) 2.03 % ID/g

###

Test system: B16F0 melanoma tumour
Assay: Biodistribution in B16 melanoma bearing mice
Type: in vivo, C57BL/6J mice
Conditions: B16 tumour, C57BL/6J mice, 1 h, mean ± SD, n = 5
experimentalReadout: uptake BRAIN (% ID/g)
Number only, in % ID/g; omit the unit.

Below are worked cases with known answers.
CCCN(CCC)CCCCNC(=O)c1cncc(I)c1 [[^123I]17]; 0.42
CCN(CC)CCNC(=O)c1cncc(I)c1 [[^123I]11]; 0.14
CCN(CC)CCNC(=O)c1ccc(I)nc1 [[^123I]14]; 0.36

Next compound, uptake BRAIN to be filled in.
(Q) # uptake BRAIN lookup, item O=C(c1cncc(I)c1)N1CCN(Cc2ccccc2)CC1 [[^123I]20]
(A) 0.20

###

Test system: B16F0 melanoma tumour
Test: Biodistribution in B16 melanoma bearing mice
Type: in vivo, C57BL/6J mice
Conditions: B16 melanoma bearing mice, 6 h
experimentalReadout: uptake KIDNEY (% ID/g)
Number only, in % ID/g; omit the unit.

Below are worked cases with known answers.
CCCCN(C)CCCCNC(=O)c1ccc(F)nc1 [[^18F]MEL4]; 1.80
CCN(CC)CCNC(=O)c1ccc(F)nc1 [[^18F]MEL2]; 0.075
CCN(CC)CCNC(=O)c1cccnc1F [[^18F]MEL6]; 0.2

Next compound, uptake KIDNEY to be filled in.
(Q) # uptake KIDNEY lookup, item CCN(CC)CCNC(=O)c1ccnc(F)c1 [[^18F]MEL8]
(A) 0.25

###

This listing pairs compounds with measured uptake SKIN.
Test system: B16F0 melanoma tumour
Assay: Biodistribution in B16 melanoma bearing mice
Assay type: in vivo, C57BL/6J mice
Details: B16 melanoma bearing mice, 1 h
Number only, in % ID/g; omit the unit.

CCCCN(C)CCCCNC(=O)c1ccc(F)nc1 [[^18F]MEL4]; 1.61
CCN(CC)CCNC(=O)c1ccnc(F)c1 [[^18F]MEL8]; 0.88
CCN(CC)CCNC(=O)c1ccc(F)nc1 [[^18F]MEL2]; 0.766

(Q) # uptake SKIN lookup, item CCN(CC)CCNC(=O)c1cccnc1F [[^18F]MEL6]
(A) 1.0

###

System: B16F0 melanoma tumour
Assay: Biodistribution in B16 melanoma bearing mice
Type: in vivo, C57BL/6J mice
Conditions: B16F0 tumour, C57BL/6J mice, 6 h, mean ± S.D., n = 5
This listing pairs molecules with measured Organ distribution Tumour.
Number only, in % ID/organ; omit the unit.

Below are worked cases with known answers.
O=C(c1cncc(I)c1)N1CCN(Cc2ccccc2)CC1 [[^123I]20]; 1.7
CCCN(CCC)CCCCNC(=O)c1cncc(I)c1 [[^123I]17]; 1.0
CCN(CC)CCNC(=O)c1cncc(I)c1 [[^123I]11]; 1.1

Next molecule, Organ distribution Tumour to be filled in.
(Q) # Organ distribution Tumour lookup, item CCN(CC)CCNC(=O)c1ccc(I)nc1 [[^123I]14]
(A) 1.4
